test: Cytotoxicity against HEK293 cells by WST-1 assay; assay type: cell-based; conditions: human
measure-name: CC50 (µM)

>>> df
                           structure_smiles  qualifying_sign  observed_result
0      O=Cc1ccc(COC(=O)c2ccc3c(c2)CCCC3)cc1                >              100
1  CC(C)(C)c1cc(C(=O)OCc2ccc(C=O)cc2)cc(C(C)(C)C)c1                =               34
2  O=C(O)c1ccc(COC(=O)c2cc(C(F)(F)F)cc(C(F)(F)F)c2)cc1                >              100
3  O=C(OCc1ccc(B(O)O)cc1)c1cc(C(F)(F)F)cc(C(F)(F)F)c1                =               49
4    CC(C)(C)c1ccc(C(=O)OCc2ccc(C=O)cc2)cc1                =               63
5  O=Cc1ccc(COC(=O)c2cc(C(F)(F)F)cc(C(F)(F)F)c2)cc1                >              100

---

test: Cytotoxicity against HEK293 cells by WST-1 assay; type: cell-based; details: human
measure-name: CC50 (µM)

                           structure_smiles  output_unit  qualifying_sign  observed_result
0  NC(=O)c1ccc(COC(=O)c2cc(C(F)(F)F)cc(C(F)(F)F)c2)cc1           µM                >              100
1  CC1=C(/C=C/C(C)=C\C=C\C(C)=C\C=O)C(C)(C)CCC1           µM                =               28
2  CC1(C)CCC(C)(C)c2cc(C(=O)NCc3ccc(C=O)cc3)ccc21           µM                =               49
3    CC(C)(C)c1cccc(C(=O)OCc2ccc(C=O)cc2)c1           µM                =               73
4  CC1=C(/C=C/C(C)=C/C=C\C(C)=C\C=O)C(C)(C)CCC1           µM                =               23
5  CC1(C)CCC(C)(C)c2cc(C(=O)OCc3ccc(C=O)cc3)ccc21           µM                =               48
